Data origin, for the record: patent US20230159538A1

Target: Pyruvate kinase M2 (PKM2) in H1299 cells (Homo sapiens)
Construct: endogenous in cells; host or cells: H1299
Sequence (P14618 2-531 limits assumed): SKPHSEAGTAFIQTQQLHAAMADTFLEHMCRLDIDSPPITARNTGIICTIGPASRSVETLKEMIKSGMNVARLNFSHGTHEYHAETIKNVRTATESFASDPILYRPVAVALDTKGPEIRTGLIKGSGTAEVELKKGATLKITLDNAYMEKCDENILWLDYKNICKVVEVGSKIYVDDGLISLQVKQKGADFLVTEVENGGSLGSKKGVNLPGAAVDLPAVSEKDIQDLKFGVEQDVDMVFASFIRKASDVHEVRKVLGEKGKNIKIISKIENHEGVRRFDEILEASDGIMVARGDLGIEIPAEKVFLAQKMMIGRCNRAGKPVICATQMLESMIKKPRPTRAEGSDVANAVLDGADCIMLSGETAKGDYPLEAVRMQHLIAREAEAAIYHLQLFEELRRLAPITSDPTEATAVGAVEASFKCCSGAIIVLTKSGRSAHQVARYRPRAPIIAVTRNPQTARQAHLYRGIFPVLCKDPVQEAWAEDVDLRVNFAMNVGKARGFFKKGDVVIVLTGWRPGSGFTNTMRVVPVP
Assay: Cell based assay for activation of pyruvate kinase M2 in lung carcinoma cell line (NADH/LDH coupled assay on cell lysate)
Settings: PKM2 cellular assay; maximal activation level relative to the activation level achieved by AG-348 @ 10 μM
Method: Cell Based Assay for Activation of Pyruvate Kinase M2 in Lung Carcinoma Cell Line H1299 cells were seeded in 96-well plates at 2,000 cells/well (100 uL). Treated plates were incubated overnight at 37° C. with 5% CO2. Compounds were diluted in complete media and added to cells in the presence of 1% DMSO. […] PKM2 activity was measured at steady state using a coupled enzyme activation system based on NADH consumption. […]
Please go through the items and note down their PKM2 % activation.
Number plus unit, in that order.

Input: Report measured PKM2 % activation; entry is C[C@@H](O)[C@H](C(=O)N1Cc2cn(S(=O)(=O)c3ccc4c(c3)NCCO4)nc2C1)c1ccccc1 [Compound 24]
Output: 63%

Input: Report measured PKM2 % activation; entry is O=C([C@@H](CO)c1ccccc1)N1Cc2cn(S(=O)(=O)c3ccc4ncsc4c3)nc2C1 (single isomer, unassigned)
Output: 133%

Input: Report measured PKM2 % activation; entry is Cc1cccc([C@@]2(C(=O)N3Cc4cn(S(=O)(=O)c5ccc6ncsc6c5)nc4C3)CCOC2)n1 (single isomer, unassigned)
Output: 89%
